Tested on: E. coli TESEC Alr+ wild-type control
Assay: growth (OD600 after 10 h); higher = more growth (less inhibition)
Conditions: compound 0.1 mM; raw OD600 reference: median of DMSO wells 0.49, cell-free background 0.052
Parameter growth: see the listing below.

Sample answers from the record:
CN1CCN(CCCN2c3ccccc3Sc3ccc(Cl)cc32)CC1 [Prochlorperazine dimaleate]
0.0475
C[C@]12C=CC(=O)C=C1CC[C@@H]1[C@@H]2[C@@H](O)C[C@@]2(C)[C@H]1CC[C@]2(O)C(=O)CO [Prednisolone]
0.514
CN(CCCN1c2ccccc2CCc2ccccc21)CC(=O)c1ccc(Cl)cc1 [Lofepramine]
0.343

Now consider a different compound.
Could you tell me which growth is on file for COc1ccc2[nH]c([S+]([O-])Cc3ncc(C)c(OC)c3C)nc2c1 (stereo not drawn) [Omeprazole] ?
0.409
